target: CYP2C9 (Homo sapiens); experiment: Inhibition of Cytochrome P450 2C9 at 100 uM; format: ADME
Sequence (P11712 whole entry): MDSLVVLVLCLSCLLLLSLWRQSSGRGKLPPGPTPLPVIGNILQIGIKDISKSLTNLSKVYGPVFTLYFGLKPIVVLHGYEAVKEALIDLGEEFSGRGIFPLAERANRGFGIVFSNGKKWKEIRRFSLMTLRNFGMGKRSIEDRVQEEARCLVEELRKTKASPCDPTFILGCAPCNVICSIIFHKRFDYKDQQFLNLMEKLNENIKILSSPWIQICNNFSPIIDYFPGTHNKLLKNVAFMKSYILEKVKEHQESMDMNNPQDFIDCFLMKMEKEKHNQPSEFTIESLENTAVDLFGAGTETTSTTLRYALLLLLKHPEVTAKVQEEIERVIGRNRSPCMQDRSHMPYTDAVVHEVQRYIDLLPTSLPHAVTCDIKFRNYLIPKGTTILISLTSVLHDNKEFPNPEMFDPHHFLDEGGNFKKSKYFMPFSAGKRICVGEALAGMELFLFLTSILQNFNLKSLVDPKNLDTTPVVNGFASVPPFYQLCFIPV
inhibition at 100 µM for assorted compounds
Form entry: value (%) — number only.

compound: Cc1cc(SC2=C(O)O[C@](CCc3ccc(N)cc3)(C(C)C)CC2=O)c(C(C)(C)C)cc1CO
readout.name: inhibition at 100 µM
quantitative.readout: 59

Lab note: next compound to report on.
Reported inhibition at 100 µM (CYP2C9 (Homo sapiens)) for entry CCNS(=O)(=O)Oc1cc(C(C)(C)C)c(SC2=C(O)OC(C)(CCc3ccc(O)cc3)CC2=O)cc1C (configuration not stated) is 46

* * *

assay: Therapeutic index was determined; conditions: read-out: Therapeutic index
readout.name: selectivity ratio
Please state the value as a number alone, without comment.

compound: CCNS(=O)(=O)Oc1cc(C(C)(C)C)c(SC2=C(O)OC(CCc3ccccc3)(C(C)C)CC2=O)cc1C (centres undefined)
selectivity ratio: 87

Could you now look at the following compound, please?
Quick note, selectivity ratio for CCNS(=O)(=O)Oc1cc(C(C)(C)C)c(SC2=C(O)OC(CCc3ccc(O)cc3)(c3ccccc3)CC2=O)cc1C (centres undefined) landed at 15

* * *

molecular target: CYP3A4 (Homo sapiens); test: Inhibition of Cytochrome P450 3A4 at 100 uM; type: ADME
readout.name: inhibition at 100 µM (%)
Expressed in %, but write only the number.

// below: answered compounds
compound: CCNS(=O)(=O)Oc1cc(C(C)(C)C)c(SC2=C(O)OC(C)(CCc3ccc(O)cc3)CC2=O)cc1C (stereo not drawn)
readout.name: inhibition at 100 µM
quantitative.readout: 58
//
compound: Cc1cc(SC2=C(O)OC(CCc3ccc(O)cc3)(C(C)C)CC2=O)c(C(C)(C)C)cc1OS(=O)(=O)N1CCN(C)CC1 (stereo not drawn)
readout.name: inhibition at 100 µM
quantitative.readout: 81

Let's switch to this compound now.
Assay CYP3A4 (Homo sapiens), sample Cc1cc(SC2=C(O)O[C@](CCc3ccc(N)cc3)(C(C)C)CC2=O)c(C(C)(C)C)cc1CO , inhibition at 100 µM read: 30

* * *

target: CYP2C9 (Homo sapiens); experiment: Inhibition of Cytochrome P450 2C9 at 10 uM; format: ADME
Entries and their measured inhibition at 10 µM follow.
Record the value in %, omitting the unit from your answer.

compound: Cc1cc(SC2=C(O)O[C@](CCc3ccc(N)cc3)(C(C)C)CC2=O)c(C(C)(C)C)cc1CO
unit.of.measurement: %
quantitative.readout: 12

Consider now this further compound.
Lab book: inhibition at 10 µM of CCNS(=O)(=O)Oc1cc(C(C)(C)C)c(SC2=C(O)OC(C)(CCc3ccc(O)cc3)CC2=O)cc1C (configuration not stated) noted as 6

* * *

Listing of entries alongside the reported IC50.
molecular target: Human immunodeficiency virus type 1 protease (Human immunodeficiency virus 1)
Number in nM, nothing else.

Consider the reported IC50 for these molecules:
molecule: CNS(=O)(=O)Oc1cc(C(C)(C)C)c(SC2=C(O)OC(CCc3ccc(O)cc3)(C(C)C)CC2=O)cc1C (centres undefined)
IC50 [nM]: 1.2

molecule: Cc1cc(SC2=C(O)OC(CCc3ccc(N)cc3)(C(C)C)CC2=O)c(C(C)(C)C)cc1OS(=O)(=O)N1CCN(C)CC1 (centres undefined)
IC50 [nM]: 1

molecule: Cc1cc(SC2=C(O)OC(C)(CCc3ccc(O)cc3)CC2=O)c(C(C)(C)C)cc1OS(N)(=O)=O (centres undefined)
IC50 [nM]: 1.8

Next item in the queue.
Value sought: IC50, system Human immunodeficiency virus type 1 protease (Human immunodeficiency virus 1), item CCNS(=O)(=O)Oc1cc(C(C)(C)C)c(SC2=C(O)OC(CCc3ccc(O)cc3)(c3ccccc3)CC2=O)cc1C (centres undefined) . Result: 26

* * *

Below is a list of entries, each paired with its recorded inhibition at 1 µM value.
biological target: CYP3A4 (Homo sapiens, UniProt P08684); test: Inhibition of Cytochrome P450 3A4 at 1 uM; assay type: ADME
Sequence (P08684 whole entry): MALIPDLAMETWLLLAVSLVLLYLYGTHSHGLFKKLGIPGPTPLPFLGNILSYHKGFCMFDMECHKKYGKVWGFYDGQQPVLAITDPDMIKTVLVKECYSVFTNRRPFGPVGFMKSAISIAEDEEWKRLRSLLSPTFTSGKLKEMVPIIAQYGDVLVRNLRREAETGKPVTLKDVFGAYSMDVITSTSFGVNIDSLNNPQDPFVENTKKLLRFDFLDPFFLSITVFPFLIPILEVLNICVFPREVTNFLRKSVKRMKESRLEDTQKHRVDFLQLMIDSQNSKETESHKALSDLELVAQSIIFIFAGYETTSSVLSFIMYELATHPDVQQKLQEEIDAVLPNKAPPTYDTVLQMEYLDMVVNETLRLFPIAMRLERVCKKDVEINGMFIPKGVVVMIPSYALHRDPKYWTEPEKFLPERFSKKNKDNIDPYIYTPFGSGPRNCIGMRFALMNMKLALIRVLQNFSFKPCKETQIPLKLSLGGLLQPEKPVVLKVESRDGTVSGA
A number alone suffices; assume %.

Take a look at these entries with their results.
molecule: CCNS(=O)(=O)Oc1cc(C(C)(C)C)c(SC2=C(O)OC(C)(CCc3ccc(O)cc3)CC2=O)cc1C (stereo not drawn)
readout.name: inhibition at 1 µM
quantitative.readout: 1

molecule: Cc1cc(SC2=C(O)OC(CCc3ccc(O)cc3)(C(C)C)CC2=O)c(C(C)(C)C)cc1OS(=O)(=O)N1CCN(C)CC1 (stereo not drawn)
readout.name: inhibition at 1 µM
quantitative.readout: 0

Next molecule, inhibition at 1 µM to be filled in.
Item: Cc1cc(SC2=C(O)O[C@](CCc3ccc(N)cc3)(C(C)C)CC2=O)c(C(C)(C)C)cc1CO | inhibition at 1 µM: 4

* * *

biological target: CYP3A4 (Homo sapiens, UniProt P08684); experiment: Inhibition of Cytochrome P450 3A4 at 10 uM; assay type: ADME
// inhibition at 10 µM lookup, one value per entry
Dear colleague, please send the value followed by its unit.

compound: Cc1cc(SC2=C(O)OC(CCc3ccc(O)cc3)(C(C)C)CC2=O)c(C(C)(C)C)cc1OS(=O)(=O)N1CCN(C)CC1 (stereo not drawn)
inhibition at 10 µM: 22%
--
compound: CCNS(=O)(=O)Oc1cc(C(C)(C)C)c(SC2=C(O)OC(C)(CCc3ccc(O)cc3)CC2=O)cc1C (stereo not drawn)
inhibition at 10 µM: 10%

Pending compound:
Cc1cc(SC2=C(O)O[C@](CCc3ccc(N)cc3)(C(C)C)CC2=O)c(C(C)(C)C)cc1CO yielded inhibition at 10 µM of 16%

* * *

molecular target: UniProt:Q72874
readout.name: Ki
Could you kindly put the unit after your number?

Given the molecule Cc1cc(SC2=C(O)O[C@](CCc3ccc(N)cc3)(C(C)C)CC2=O)c(C(C)(C)C)cc1CO and test system UniProt:Q72874, the measured Ki is 0.11 nM

* * *

assay: Therapeutic index was determined; conditions: read-out: Therapeutic index
readout.name: selectivity ratio
Reply with just the number.

molecule: Cc1cc(SC2=C(O)OC(CCc3ccc(O)cc3)(C(C)C)CC2=O)c(C(C)(C)C)cc1OS(=O)(=O)N(C)C (centres undefined)
selectivity ratio: 100

Could you now look at the following molecule, please?
Sample CCNS(=O)(=O)Oc1cc(C(C)(C)C)c(SC2=C(O)OC(CCc3ccc(N)cc3)(C(C)C)CC2=O)cc1C (centres undefined) ; selectivity ratio observed: 117

* * *

test system: CYP2D6; assay: Inhibition of Cytochrome P450 2D6 at 100 uM; type: ADME
Quick reference: inhibition at 100 µM of the listed items.
Kindly answer with a numeric value in %, unit omitted.

Worked cases, answers included:
molecule: Cc1cc(SC2=C(O)OC(CCc3ccc(O)cc3)(C(C)C)CC2=O)c(C(C)(C)C)cc1OS(=O)(=O)N1CCN(C)CC1 (stereo not drawn)
inhibition at 100 µM [%]: 100
--
molecule: CCNS(=O)(=O)Oc1cc(C(C)(C)C)c(SC2=C(O)OC(C)(CCc3ccc(O)cc3)CC2=O)cc1C (stereo not drawn)
inhibition at 100 µM [%]: 100

Next molecule, inhibition at 100 µM to be filled in.
Summary for this molecule, Cc1cc(SC2=C(O)O[C@](CCc3ccc(N)cc3)(C(C)C)CC2=O)c(C(C)(C)C)cc1CO : inhibition at 100 µM is 33

* * *

experiment: Therapeutic index was determined; conditions: read-out: Therapeutic index
Could you please mark t for values of selectivity ratio below 90 and f for values at or above it?

Take a look at these entries with their results.
compound: CCCNS(=O)(=O)Oc1cc(C(C)(C)C)c(SC2=C(O)OC(C)(CCc3ccc(O)cc3)CC2=O)cc1C (stereo not drawn)
assigned.category: t

compound: Cc1cc(SC2=C(O)O[C@](CCc3ccc(N)cc3)(C(C)C)CC2=O)c(C(C)(C)C)cc1CO
assigned.category: f

compound: Cc1cc(SC2=C(O)OC(CCc3ccc(O)cc3)(C3CCCCC3)CC2=O)c(C(C)(C)C)cc1OS(=O)(=O)N(C)C (stereo not drawn)
assigned.category: t

compound: Cc1cc(SC2=C(O)OC(CCc3ccc(O)cc3)(C(C)C)CC2=O)c(C(C)(C)C)cc1OS(=O)(=O)N1CCN(C)CC1 (stereo not drawn)
assigned.category: f

compound: Cc1cc(SC2=C(O)OC(CCc3ccc(O)cc3)(C(C)C)CC2=O)c(C(C)(C)C)cc1OS(=O)(=O)N1CCOCC1 (stereo not drawn)
assigned.category: f

compound: Cc1cc(SC2=C(O)OC(CCc3ccc(N)cc3)(C(C)C)CC2=O)c(C(C)(C)C)cc1OS(=O)(=O)N(C)C (stereo not drawn)
assigned.category: t

Given the entry Cc1cc(SC2=C(O)OC(C)(CCc3ccc(O)cc3)CC2=O)c(C(C)(C)C)cc1OS(N)(=O)=O (stereo not drawn) , would its reported selectivity ratio be below 90?
t

* * *

target: Human immunodeficiency virus type 1 protease (Human immunodeficiency virus 1)
Define the label as y when IC50 is strictly less than 4 nM and as n in all remaining cases.

Worked examples, 3 compounds total:
compound: Cc1cc(SC2=C(O)OC(CCc3ccc(O)cc3)(C3CCCCC3)CC2=O)c(C(C)(C)C)cc1OS(=O)(=O)N(C)C (stereo not given)
assigned.category: n

compound: Cc1cc(SC2=C(O)OC(CCc3ccc(O)cc3)(C(C)C)CC2=O)c(C(C)(C)C)cc1OS(=O)(=O)N1CCOCC1 (stereo not given)
assigned.category: y

compound: Cc1cc(SC2=C(O)OC(CCc3ccc(O)cc3)(C(C)C)CC2=O)c(C(C)(C)C)cc1OS(=O)(=O)N1CCN(C)CC1 (stereo not given)
assigned.category: y

Does this compound meet the criterion IC50 < 4 nM? CCNS(=O)(=O)Oc1cc(C(C)(C)C)c(SC2=C(O)OC(CCc3ccc(N)cc3)(C(C)C)CC2=O)cc1C (stereo not given)
n

is_below(IC50, 4 nM) for Cc1cc(SC2=C(O)OC(CCc3ccc(O)cc3)(C3CCCCC3)CC2=O)c(C(C)(C)C)cc1OS(=O)(=O)N1CCN(C)CC1 (stereo not given) ?
n

Just wondering, is IC50 of CCNS(=O)(=O)Oc1cc(C(C)(C)C)c(SC2=C(O)OC(C)(CCc3ccc(O)cc3)CC2=O)cc1C (stereo not given) below 4 nM?
y

Is IC50 strictly under 4 nM for the entry Cc1cc(SC2=C(O)OC(C)(CCc3ccc(O)cc3)CC2=O)c(C(C)(C)C)cc1OS(=O)(=O)N(C)C (stereo not given) ?
y

Threshold test, IC50 < 4 nM: CCNS(=O)(=O)Oc1cc(C(C)(C)C)c(SC2=C(O)OC(CCc3ccccc3)(C(C)C)CC2=O)cc1C (stereo not given)
n

Is 4 nM strictly greater than the compound's reported IC50? compound: Cc1cc(SC2=C(O)OC(C)(CCc3ccc(O)cc3)CC2=O)c(C(C)(C)C)cc1O (stereo not given)
n
